B1: minF1; a variant is named by its letters at N, in order (parent)
chain: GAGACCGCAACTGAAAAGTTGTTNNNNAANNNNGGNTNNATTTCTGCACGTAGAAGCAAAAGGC

variants of: B1; assay: fraction ligated after 30 min (ligated reads / total reads); higher = more ligase activity; conditions: with F1*subA RNA substrate (template-directed ligation), 42 °C
Documented fraction ligated across a set of variants
readout_name: fraction ligated

INSERT INTO results (seq_string, number) VALUES
  ('GAGACCGCAACTGAAAAGTTGTTTCAGAAATGATGGTTGATTTCTGCACGTAGAAGCAAAAGGC [TCAGATGAGTG G34T]', 0.00362),
  ('GAGACCGCAACTGAAAAGTTGTTATCGAAATGGAGGGTTATTTCTGCACGTAGAAGCAAAAGGC [ATCGATGGGTT G34A T37G]', 0.00243),
  ('GAGACCGCAACTGAAAAGTTGTTATCAGAAATTGGGTTGATTTCTGCACGTAGAAGCAAAAGGC [ATCAAATTGTG A28G]', 0.00512),
  ('GAGACCGCAACTGAAAAGTTGTTATAAATGATGGGTTGAATTTCTGCACGTAGAAGCAAAAGGC [ATAAGATGTGA A29T]', 0.00321),
  ('GAGACCGCAACTGAAAAGTTGTTAAGAAATGGGGGTTGAATTTCTGCACGTAGAAGCAAAAGGC [AAGATGGGTGA]', 0.00372),
  ('GAGACCGCAACTGAAAAGTTGTTATAAAATGGATGGGTTGTTTCTGCACGTAGAAGCAAAAGGC [ATAATGGAGTT G34T T37G A40G]', 0.00113),
  ('GAGACCGCAACTGAAAAGTTGTTATCAGATGGATGGGTTATTTCTGCACGTAGAAGCAAAAGGC [ATCATGGAGTT A28G G34T T37G]', 0.00165),
  ('GAGACCGCAACTGAAAAGTTGTTATGAAATGATGGTTGAATTTCTGCACGTAGAAGCAAAAGGC [ATGATGATTGA]', 0.00379),
  ('GAGACCGCAACTGAAAAGTTGTTATAGAAATGTGGTTGAATTTCTGCACGTAGAAGCAAAAGGC [ATAGATGTTGA]', 0.00174),
  ('GAGACCGCAACTGAAAAGTTGTTATGAAATGGGGGTTGAATTTCTGCACGTAGAAGCAAAAGGC [ATGATGGGTGA]', 0),
  ('GAGACCGCAACTGAAAAGTTGTATCAAAATGAGGGTTGAATTTCTGCACGTAGAAGCAAAAGGC [TCAATGAGTGA T23A]', 0.00315),
  ('GAGACCGCAACTGAAAAGTTGTATCAAATGGAGGGTTGAATTTCTGCACGTAGAAGCAAAAGGC [TCAAGGAGTGA T23A A29T]', 0.00288),
  ('GAGACCGCAACTGAAAAGTTGTTATCAGAAAGGGGTTGAATTTCTGCACGTAGAAGCAAAAGGC [ATCAAAGGTGA A28G]', 0.00196),
  ('GAGACCGCAACTGAAAAGTTGTTCAGAAATATGGGTTGAATTTCTGCACGTAGAAGCAAAAGGC [CAGATATGTGA]', 0.00323),
  ('GAGACCGCAACTGAAAAGTTGTTACGAAAGATGGGTTGAATTTCTGCACGTAGAAGCAAAAGGC [ACGAGATGTGA]', 0.00357),
  ('GAGACCGCAACTGAAAAGTTGTTACAGAAATGTGGGTTAATTTCTGCACGTAGAAGCAAAAGGC [ACAGATGTGTA]', 0.00227),
  ('GAGACCGCAACTGAAAAGTTGTATAAAATGGATGGGTTGATTTCTGCACGTAGAAGCAAAAGGC [TAAAGGATGTG T23A A29T]', 0.00674),
  ('GAGACCGCAACTGAAAAGTTGTTATCGAATGGTGGGTTAATTTCTGCACGTAGAAGCAAAAGGC [ATCGTGGTGTA]', 0.00478),
  ('GAGACCGCAACTGAAAAGTTGTTATCGAAATGGGGTTGAATTTCTGCACGTAGAAGCAAAAGGC [ATCGATGGTGA]', 0.00498),
  ('GAGACCGCAACTGAAAAGTTGTTTGAAATGGAGGGTTGAATTTCTGCACGTAGAAGCAAAAGGC [TGAAGGAGTGA A29T]', 0.000652),
  ('GAGACCGCAACTGAAAAGTTGTTATCAGAAATGGGGTTAATTTCTGCACGTAGAAGCAAAAGGC [ATCAAATGGTA A28G]', 0.0012),
  ('GAGACCGCAACTGAAAAGTTGTTTCAGATGGTGGGTTGAATTTCTGCACGTAGAAGCAAAAGGC [TCAGGGTGTGA A29T]', 0.00272),
  ('GAGACCGCAACTGAAAAGTTGTATCAAAATGGGGGTTGAATTTCTGCACGTAGAAGCAAAAGGC [TCAATGGGTGA T23A]', 0.00158),
  ('GAGACCGCAACTGAAAAGTTGTTATAGAATGAGGGTTGAATTTCTGCACGTAGAAGCAAAAGGC [ATAGTGAGTGA]', 0.00282),
  ('GAGACCGCAACTGAAAAGTTGTTTAGAAATGGATGGGTTGTTTCTGCACGTAGAAGCAAAAGGC [TAGATGGAGTT G34T T37G A40G]', 0.00199),
  ('GAGACCGCAACTGAAAAGTTGTTATCGAATGATGGGTTAATTTCTGCACGTAGAAGCAAAAGGC [ATCGTGATGTA]', 0.00285),
  ('GAGACCGCAACTGAAAAGTTGTTACAGATGATGGGTTGAATTTCTGCACGTAGAAGCAAAAGGC [ACAGGATGTGA A29T]', 0.00171),
  ('GAGACCGCAACTGAAAAGTTGTATCAGAATGGATGGTTAATTTCTGCACGTAGAAGCAAAAGGC [TCAGTGGAGTA T23A G34T]', 0.0212),
  ('GAGACCGCAACTGAAAAGTTGTTACAGAATGGGGGTTGAATTTCTGCACGTAGAAGCAAAAGGC [ACAGTGGGTGA]', 0.00475),
  ('GAGACCGCAACTGAAAAGTTGTTATCAAAATGGTGGTTGATTTCTGCACGTAGAAGCAAAAGGC [ATCAATGGGTG G34T]', 0.00622),
  ('GAGACCGCAACTGAAAAGTTGTTTCGAAAGGATGGTTGAATTTCTGCACGTAGAAGCAAAAGGC [TCGAGGATTGA]', 0.00327),
  ('GAGACCGCAACTGAAAAGTTGTTTCAAATGGATGGGTTGATTTCTGCACGTAGAAGCAAAAGGC [TCAAGGATGTG A29T]', 0.00632),
  ('GAGACCGCAACTGAAAAGTTGTATCAGATGGATGGGTTGATTTCTGCACGTAGAAGCAAAAGGC [TCAGGGATGTG T23A A29T]', 0.0102),
  ('GAGACCGCAACTGAAAAGTTGTTTAGAAATGGAGGTTGAATTTCTGCACGTAGAAGCAAAAGGC [TAGATGGATGA]', 0.00101),
  ('GAGACCGCAACTGAAAAGTTGTATCAGAAATGAGGGTTAATTTCTGCACGTAGAAGCAAAAGGC [TCAGATGAGTA T23A]', 0.00194),
  ('GAGACCGCAACTGAAAAGTTGTTATAGAAATGGATGGTTATTTCTGCACGTAGAAGCAAAAGGC [ATAGATGGGTT G34A G35T T37G]', 0.0013),
  ('GAGACCGCAACTGAAAAGTTGTATAAAATGATGGGTTGAATTTCTGCACGTAGAAGCAAAAGGC [TAAAGATGTGA T23A A29T]', 0.00358),
  ('GAGACCGCAACTGAAAAGTTGTTATCAGAAAGGAGGGTTGTTTCTGCACGTAGAAGCAAAAGGC [ATCAAAGGGTT A28G G34A T37G A40G]', 0.000889),
  ('GAGACCGCAACTGAAAAGTTGTTACGAAATGGAGGGTTGATTTCTGCACGTAGAAGCAAAAGGC [ACGATGGAGTG]', 0.0132),
  ('GAGACCGCAACTGAAAAGTTGTTATCAGTGGTGGGTTGAATTTCTGCACGTAGAAGCAAAAGGC [ATCAGGTGTGA A28G A29T]', 0.00216),
  ('GAGACCGCAACTGAAAAGTTGTTACAGAAAGATGGGTTGATTTCTGCACGTAGAAGCAAAAGGC [ACAGAGATGTG]', 0.00764),
  ('GAGACCGCAACTGAAAAGTTGTTTAGAAATGGGGGTTGAATTTCTGCACGTAGAAGCAAAAGGC [TAGATGGGTGA]', 0.00433),
  ('GAGACCGCAACTGAAAAGTTGTTATCAGAATATGGGTTGATTTCTGCACGTAGAAGCAAAAGGC [ATCAATATGTG A28G]', 0.00686),
  ('GAGACCGCAACTGAAAAGTTGTTACAGAAAGGATGGTTAATTTCTGCACGTAGAAGCAAAAGGC [ACAGAGGAGTA G34T]', 0.000671),
  ('GAGACCGCAACTGAAAAGTTGTTTCAGAAATGAGGGTTGATTTCTGCACGTAGAAGCAAAAGGC [TCAGATGAGTG]', 0.00463),
  ('GAGACCGCAACTGAAAAGTTGTTATCAGAATGGAGGGTTATTTCTGCACGTAGAAGCAAAAGGC [ATCAATGGGTT A28G G34A T37G]', 0.00259);

Ref: the supplement of paper PMC6755084
